All figures here come from patent US12502393B2.

In this section we review reported % Bound in human plasma values for a set of molecules.
protocol details: Human plasma protein binding
Type: in vitro ADME
Description: An aliquot of 200 μL of human plasma containing test compound was spiked into donor well (red chamber) of the insert. 350 μL of PBS was spiked into receiver well (white chamber) of the insert. The samples were matrix equilibrated with opposite matrix (25 μL of plasma/buffer sample was matched with 25 μL of blank buffer/plasma). […] Supernatant was separated, diluted 2 fold with water and analysed in LC-MS/MS. […]
Number first, unit second: that is the form wanted.

Examples with their reported % Bound in human plasma follow.
CCCc1nc(C)c2c(=O)[nH]c(-c3cc(S(=O)(=O)N4CCC(CC(C)(CO)CO[N+](=O)[O-])CC4)ccc3OCC)nn12 (stereo not drawn)    99.66%
CCCc1nn(C)c2c(=O)[nH]c(-c3cc(S(=O)(=O)N4CCC(C(O)C(CO[N+](=O)[O-])CO[N+](=O)[O-])CC4)ccc3OCC)nc12 (racemic)    99.85%

--- query ---
Record "CCCc1nc(C)c2c(=O)[nH]c(-c3cc(S(=O)(=O)N4CCC(CC(CO[N+](=O)[O-])CO[N+](=O)[O-])CC4)ccc3OCC)nn12" , field % Bound in human plasma: 99.92%
